target: human full length PIK3CA wild-type (p110α/p85α) (Homo sapiens (Human), UniProt P42336); experiment: PI3K-alpha kinase (PIK3CA) activity, wild-type, Transcreener ADP2 FI assay; conditions: PI3K-α (PIK3CA) biochemical
Sequence (P42336 whole entry): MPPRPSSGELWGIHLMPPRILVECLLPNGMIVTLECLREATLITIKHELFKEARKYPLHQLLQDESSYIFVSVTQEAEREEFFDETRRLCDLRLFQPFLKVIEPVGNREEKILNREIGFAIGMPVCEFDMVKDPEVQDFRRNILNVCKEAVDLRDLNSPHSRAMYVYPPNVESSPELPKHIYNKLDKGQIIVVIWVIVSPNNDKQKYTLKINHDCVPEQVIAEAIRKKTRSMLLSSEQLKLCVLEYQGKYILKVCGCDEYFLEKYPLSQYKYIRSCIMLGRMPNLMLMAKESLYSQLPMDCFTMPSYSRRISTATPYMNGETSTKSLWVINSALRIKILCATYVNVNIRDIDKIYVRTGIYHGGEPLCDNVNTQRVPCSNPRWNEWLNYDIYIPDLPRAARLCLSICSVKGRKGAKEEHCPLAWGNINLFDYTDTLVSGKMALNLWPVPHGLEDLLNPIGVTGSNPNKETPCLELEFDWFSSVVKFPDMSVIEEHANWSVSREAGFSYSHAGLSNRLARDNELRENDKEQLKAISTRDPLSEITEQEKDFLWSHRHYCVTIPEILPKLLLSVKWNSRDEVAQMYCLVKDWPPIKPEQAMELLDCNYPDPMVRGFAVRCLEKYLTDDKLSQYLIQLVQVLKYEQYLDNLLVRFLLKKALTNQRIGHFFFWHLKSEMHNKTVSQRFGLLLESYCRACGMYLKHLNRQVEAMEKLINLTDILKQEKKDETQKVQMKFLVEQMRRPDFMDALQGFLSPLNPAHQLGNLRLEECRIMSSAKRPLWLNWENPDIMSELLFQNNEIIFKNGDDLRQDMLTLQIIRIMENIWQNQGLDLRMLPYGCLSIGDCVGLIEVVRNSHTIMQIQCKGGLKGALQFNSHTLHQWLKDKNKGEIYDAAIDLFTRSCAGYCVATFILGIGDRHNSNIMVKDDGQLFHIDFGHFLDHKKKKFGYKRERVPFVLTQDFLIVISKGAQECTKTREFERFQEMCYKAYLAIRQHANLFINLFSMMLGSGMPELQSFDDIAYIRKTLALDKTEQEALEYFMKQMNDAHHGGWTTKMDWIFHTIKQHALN
Sequence (P27986 whole entry partner): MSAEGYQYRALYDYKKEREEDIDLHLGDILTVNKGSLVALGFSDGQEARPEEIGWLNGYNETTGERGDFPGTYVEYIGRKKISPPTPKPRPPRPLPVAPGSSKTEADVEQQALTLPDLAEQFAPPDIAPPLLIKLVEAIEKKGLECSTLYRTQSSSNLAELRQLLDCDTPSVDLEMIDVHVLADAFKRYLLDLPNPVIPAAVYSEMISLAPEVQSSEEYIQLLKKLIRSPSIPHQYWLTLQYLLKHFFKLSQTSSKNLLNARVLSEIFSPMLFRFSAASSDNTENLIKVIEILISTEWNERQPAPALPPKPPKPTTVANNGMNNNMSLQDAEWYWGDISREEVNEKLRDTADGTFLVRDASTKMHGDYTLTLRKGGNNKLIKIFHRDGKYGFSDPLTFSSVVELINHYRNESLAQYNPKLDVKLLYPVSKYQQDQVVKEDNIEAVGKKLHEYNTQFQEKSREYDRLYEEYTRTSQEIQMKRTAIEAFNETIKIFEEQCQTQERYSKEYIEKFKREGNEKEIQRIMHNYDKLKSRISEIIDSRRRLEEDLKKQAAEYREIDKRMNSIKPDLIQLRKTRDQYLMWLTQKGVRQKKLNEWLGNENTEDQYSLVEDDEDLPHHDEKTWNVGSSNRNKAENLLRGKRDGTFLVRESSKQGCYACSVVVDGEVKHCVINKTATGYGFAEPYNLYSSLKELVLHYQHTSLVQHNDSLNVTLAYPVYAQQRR
pIC50: −log10 of the molar value.
I'd be grateful if you could share measured pIC50 for these entries.

Give one value of pIC50 per listed compound.
1. Cc1cc([C@@H](C)Nc2ccc(Cl)nc2C(=O)O)c2oc(N3CCCCC3)c(C)c(=O)c2c1
2. COc1ccc(NC(C)c2cc(C)cc3c(=O)cc(N4Cc5ccccc5C4)oc23)c(C(=O)O)n1 (centres unmarked)
3. Cc1cc(C(C)Nc2ccccc2C(=O)O)c2oc(N3CC(Cl)C3)cc(=O)c2c1 (centres unmarked)
4. Cc1cc(C(C)Nc2ccc(C#N)cc2C(=O)O)c2oc(N3CCC(C)(C)CC3)cc(=O)c2c1 (centres unmarked)
5. Cc1cc(C(C)Nc2ccsc2C(=O)O)c2oc(N3CCC(C)(C)CC3)cc(=O)c2c1 (centres unmarked)
6. Cc1cc([C@@H](C)Nc2ccccc2C(=O)O)c2oc(N3CC[C@H](c4ccccc4)C3)c(C)c(=O)c2c1
7. CCNc1cc(=O)c2cc(C)cc(C(C)Nc3ccccc3C(=O)O)c2o1 (centres unmarked)
8. COc1cc(C(=O)O)c(NC(C)c2cc(C)cc3c(=O)cc(N4CCC(C)(C)CC4)oc23)cc1F (centres unmarked)

### Response
1. > 6.30
2. < 5.00
3. < 5.00
4. < 5.00
5. < 5.00
6. > 6.30
7. < 5.00
8. < 5.00

* * *

molecular target: human full length PIK3CA H1047R mutant (p110α/p85α) (Homo sapiens (Human), UniProt P42336, H1047R); experiment: PI3K-alpha kinase (PIK3CA) activity, H1047R mutant, Transcreener ADP2 FI assay; conditions: PI3K-α (PIK3CA) biochemical
Sequence (P42336 whole entry H1047R): as the sequence (P42336 whole entry) above, with H1047R counted along it
Sequence (P27986 whole entry partner): as the sequence (P27986 whole entry partner) above
pIC50: −log10 of the molar value.
parameter-measured: pIC50

Worked examples, 3 compounds total:
1) Cc1cc(C(C)Nc2ccc(Cl)nc2C(=O)O)c2oc(N3Cc4ccc5c(c4C3)OCO5)cc(=O)c2c1 (stereo not drawn) :: > 6.30
2) Cc1cc([C@@H](C)Nc2ccccc2C(=O)O)c2oc(N3CCC(C#N)(c4ccccc4)CC3)c(C)c(=O)c2c1 :: > 6.30
3) Cc1cc(C(C)Nc2ccc(Cl)nc2C(=O)O)c2oc(N3CCC4(CC3)CC4)c(C)c(=O)c2c1 (stereo not drawn) :: > 6.30

// each listed compound needs a value for pIC50
1. Cc1cc(C(C)N(C)c2ccccc2C(=O)O)c2oc(N3CCC(C)(C)CC3)cc(=O)c2c1 (stereo not drawn)
2. Cc1cc(C(C)Nc2sc(Cl)nc2C(=O)O)c2oc(N3Cc4ccccc4C3)cc(=O)c2c1 (stereo not drawn)
3. Cc1cc([C@@H](C)Nc2ccc(Cl)nc2C(=O)O)c2oc(N3Cc4ccc5c(c4C3)OCO5)cc(=O)c2c1

### Response
< 5.00
> 6.30
> 6.30

* * *

target: human full length PIK3CA wild-type (p110α/p85α) (Homo sapiens (Human), UniProt P42336); experiment: PI3K-alpha kinase (PIK3CA) activity, wild-type, Transcreener ADP2 FI assay; details: PI3K-α (PIK3CA) biochemical
parameter-measured: IC50

Can you give me IC50 for all of these, one by one?
1. Cc1cc(C(C)Nc2cc3c(cc2C(=O)O)OCO3)c2oc(N3CCC(C)(C)CC3)cc(=O)c2c1 (stereo not drawn)
2. Cc1cc([C@@H](C)Nc2ccc(Cl)nc2C(=O)O)c2oc(N3CCC(C)(C)CC3)cc(=O)c2c1
3. Cc1cc([C@@H](C)Nc2ccc(Cl)nc2C(=O)O)c2oc(N3CCC(F)(F)CC3)c(C)c(=O)c2c1

### Response
["> 10000 nM", "< 500 nM", "< 500 nM"]

* * *

Record form. Attribute: IC50. Fill in for each entry.
Target: human full length PIK3CA wild-type (p110α/p85α) (Homo sapiens (Human))
Test: PI3K-alpha kinase (PIK3CA) activity, wild-type, Transcreener ADP2 FI assay
Conditions: PI3K-α (PIK3CA) biochemical
Description: PI3K-Alpha Kinase (PIK3CA) Activity, Wild-Type and H1047R Mutant and Determining IC50 Values for Inhibitors […] Wild-type (WT) and H1047R mutant protein, along with buffer components (except ATP), were incubated with or without compound at 27° C. for 1 h. […] The contents were incubated at rt for 1 h and fluorescence was measured using a plate reader (Paradigm, Molecular Devices). […] Using that, the observed fluorescence was converted to uM ADP. […]

1. Cc1cc([C@@H](C)Nc2ccccc2C(=O)O)c2oc(N3CC(C)(c4ccccc4)C3)c(C)c(=O)c2c1 [Example 274] :: < 0.5 µM
2. Cc1cc([C@@H](C)Nc2ccc(Cl)nc2C(=O)O)c2oc(N3Cc4ccc(F)cc4C3)c(C)c(=O)c2c1 [Example 308] :: < 0.5 µM
3. Cc1cc(C(C)Nc2c(Cl)cccc2C(=O)O)c2oc(N3CCC(C)(C)CC3)cc(=O)c2c1 (stereo not drawn) [Example 11] :: > 10 µM

Need IC50 for each of these molecules.
1. Cc1cc(C(C)Nc2cc(F)ccc2[N+](=O)[O-])c2oc(N3CCC(C)(C)CC3)cc(=O)c2c1 (stereo not drawn) [Example 8]
2. Cc1cc(C(C)Nc2ccc(B(O)O)cc2C(=O)O)c2oc(N3CCC(C)(C)CC3)cc(=O)c2c1 (stereo not drawn) [Example 357]
3. Cc1cc(C(C)Nc2ccc(Cl)nc2C(=O)O)c2oc(N3CCCCC3)c(C)c(=O)c2c1 (stereo not drawn) [Example 305]
4. Cc1cc([C@@H](C)Nc2ccc(Cl)nc2C(=O)O)c2oc(N3Cc4ccc5c(c4C3)OCO5)cc(=O)c2c1 [Example 301]

### Response
1: > 10 µM; 2: > 10 µM; 3: < 0.5 µM; 4: < 0.5 µM

For every listed record, write down its IC50.
1. CNC(=O)C1CCN(c2cc(=O)c3cc(C)cc(C(C)Nc4ccccc4C(=O)O)c3o2)CC1 (stereo not drawn) [Example 371]
2. Cc1cc(C(C)Nc2ccccc2C(=O)O)c2oc(N3CCC4(CC3)CN(C)C(=O)O4)cc(=O)c2c1 (stereo not drawn) [Example 380]
3. Cc1cc(C(C)Nc2ccccc2C(=O)O)c2oc(N3CC(N(C)C)C3)cc(=O)c2c1 (stereo not drawn) [Example 68]
4. Cc1cc(C(C)Nc2ccccc2C(=O)O)c2oc(NCC(C)C)cc(=O)c2c1 (stereo not drawn) [Example 77]
5. Cc1cc(C(C)N(C)c2ccccc2C(=O)O)c2oc(N3CCC(C)(C)CC3)cc(=O)c2c1 (stereo not drawn) [Example 5]

### Response
> 10 µM
> 10 µM
> 10 µM
> 10 µM
> 10 µM
